Data provenance: patent US12616750B2

Tested on: MDA-MB-468 cells
Experiment: Cytotoxicity (cell viability, CellTiter-Glo, 6 d)
Assay type: cell-based
Details: Homo sapiens, MDA-MB-468; read-out: IC50
OBSERVATION_TYPE: IC50 (pM)
One number for each entry, in pM.

Input line: Which measured IC50 value corresponds to COC(=O)c1cc2c3c(cc(O)c2[nH]1)N(C(=O)c1cc2cc(OC)c(OC)c(OC)c2[nH]1)C[C@H]3CCl [compound 13] ?
Output line: 140

----------
System: MDA-MB-468 cells
Assay: Cytotoxicity (cell viability, CellTiter-Glo, 6 d)
Assay type: cell-based
Conditions: MDA-MB-468, agent alone, 384-well format (footnote a); read-out: IC50
OBSERVATION_TYPE: pIC50
Numbers only, as −log10 of the molar value.

Input line: Which measured pIC50 value corresponds to CN(C)CCOc1ccc2[nH]c(C(=O)N3C[C@@H](CCl)c4c3cc(O)c3ccccc43)cc2c1 ?
Output line: 10.70
